Protocol Text: sensitizers of A549 cells to miR-34 induction, primary screen, imaging, A549 dox-inducible miR-34, nuclei and caspase counts (AID 1347080)
Reported Conditions: A549 miR-34 inducible, Hoechst nuclei count, 48 h; measured here: total cells with miR-34 induction; stronger effect = lower value
Under this convention, y denotes cell count strictly below 8000 and n denotes cell count at or above 8000.

[
  {
    "Compound": "Cc1c(C)c2c(c(C)c1O)CCC(C)(C(=O)O)O2 (centres undefined)",
    "Cat": "n"
  }
]

Quick check: cell count of CCCCCOC(=O)Nc1nc(=O)n(C2O[C@H](C)[C@@H](O)[C@H]2O)cc1F (some centres undefined) under 8000?
n

Quick check: cell count of CC(NCCc1ccc(O)cc1)C(O)c1ccc(O)cc1 (centres undefined) under 8000?
n

Quick check: cell count of "O=C(CNC(=O)c1ccc(Cl)cc1)NO" under 8000?
n

Quick check: cell count of CC(=O)[C@H]1CCC2C3CC=C4C[C@@H](OC(=O)CCC(=O)O)CC[C@]4(C)C3CC[C@@]21C (some centres undefined) under 8000?
n

Quick check: cell count of CN(CCO)CC(O)Cn1cnc2c1c(=O)n(C)c(=O)n2C (centres undefined) (tested in a mixture with another compound) under 8000?
n

Quick check: cell count of "Nc1nc(F)nc2c1ncn2[C@@H]1O[C@H](COP(=O)(O)O)[C@@H](O)[C@@H]1O" under 8000?
y

Quick check: cell count of C[C@@H]1O[C@@H](OC[C@H]2OC(Oc3c(-c4ccc(O)c(O)c4)oc4cc(O)cc(O)c4c3=O)[C@H](O)[C@@H](O)[C@@H]2O)[C@H](O)[C@H](O)[C@H]1O (some centres undefined) under 8000?
n

Quick check: cell count of Nc1ccn(C2O[C@H](CO)[C@@H](O)[C@@H]2O)c(=O)n1 (some centres undefined) under 8000?
y

----------
Protocol Text: LFS_MB_P medulloblastoma growth inhibition, cell-based, chromothripsis tumors, cisplatin or BGB combos (AID 1671449);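 also: cells exposed for 96 hours; 0% = vehicle DMSO and 100% = killing by high DMSO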
Reported Conditions: LFS_MB_P medulloblastoma cells, at 0.5 µM
Calls of active or inactive are those of the source. Rule as the data show it: active = inhibition above about 80%; inactive = the rest.
Bench note: report the call from active, inactive

Record request — test call for "O=c1cc(-c2cccc3c2Sc2ccccc2S3)oc(N2CCOCC2)c1"
active

Record request — test call for "Cc1c(-c2cnccn2)ssc1=S"
inactive

Record request — test call for "CC(C)N=c1cc2n(-c3ccc(Cl)cc3)c3ccccc3nc-2cc1Nc1ccc(Cl)cc1"
inactive

Record request — test call for NC(=O)c1ncn(C2OC(CO)C(O)C2O)n1 (centres undefined)
inactive

----------
Catalogue of compounds with associated viability
Protocol Text: ovarian cancer cell viability with rucaparib, profiling panel, oncology-focused library, rucaparib conditional (AID 1508598)
Reported Conditions: patient-derived ovarian cancer cells, CellTiter-Glo viability, 144 h; at 1.25 µM; OCI-C5x cells; with rucaparib 10 µM; stronger effect = lower value; 100% = cells with rucaparib alone
Write the answer as a number in %, unit excluded.

// below: answered compounds
[
  {
    "Compound": "C[C@@H](N)C1CCC(C(=O)Nc2ccncc2)CC1 (stereo not given in full)",
    "Uom": "%",
    "Value Reported": 117
  },
  {
    "Compound": "O=C(O)c1ccc(-c2c[nH]c3ncc(-c4ccccc4)cc23)cc1C1CCCC1",
    "Uom": "%",
    "Value Reported": 88.1
  },
  {
    "Compound": "O=C1CN2Cc3c(ccc(Cl)c3Cl)N=C2N1",
    "Uom": "%",
    "Value Reported": 123
  },
  {
    "Compound": "CN(C)CCCn1cc(C2=C(c3c[nH]c4ccccc34)C(=O)NC2=O)c2ccccc21",
    "Uom": "%",
    "Value Reported": 122
  },
  {
    "Compound": "Cc1ccc(S(=O)(=O)/C=C/C#N)cc1",
    "Uom": "%",
    "Value Reported": 122
  },
  {
    "Compound": "O=c1[nH]c(-c2ccc(C(F)(F)F)cc2)nc2c1CSCC2",
    "Uom": "%",
    "Value Reported": 107
  }
]

Give the measured viability of "O=c1cc(N2CCOCC2)oc2c(-c3ccccc3)cccc12" .
94

Give the measured viability of "O=c1cc(-c2cccc3c2Sc2ccccc2S3)oc(N2CCOCC2)c1" .
111

Give the measured viability of "N#Cc1c(O)c2c(-c3ccc(-c4ccccc4O)cc3)csc2[nH]c1=O" .
112

Give the measured viability of "O=C(O)Cc1cccc(OCCCN(Cc2cccc(C(F)(F)F)c2Cl)CC(c2ccccc2)c2ccccc2)c1" .
111

----------
Test system: R275C/beta4
Protocol Text: modulators of BK channel variants, profiling panel, selectivity assay, cell-based, U2OS BacMam, thallium flux, beta subunits (AID 1259406);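 also: initial slope of Thallos dye fluorescence rise after thallium is added; log ratio against the mean of 0.3% DMSO vehicle wells on the same plate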
Reported Conditions: at 30 µM
Numbered stars: 1 amine (or outer) side, 2 acyl side, 3 side chain; on linkers, the order of the positions; unused ones are H or OH. Bridge positions count the residues as written; N and C are the ends. Square brackets hold non-standard residues; d marks the D form. Peptide text beside a SMILES is read from it. I, II: the chains in the order shown. Actinocin(9to1) = Cc1c2oc3c(C)ccc(C(=O)[*:1])c3nc-2c(C(=O)[*:2])c(N)c1=O; NMeV = CN[CH](C(=O)O)C(C)C; Sar = CNCC(=O)O
Parameter: log fold change Tl+ flux
// return a plain number; no unit text

[
  {
    "Compound": "CC1(C)CC(=O)C=C(NCCCCCCCCNC2=CC(=O)CC(C)(C)C2)C1",
    "log fold change Tl+ flux": -0.0723
  },
  {
    "Compound": "Cc1c2oc3c(C)ccc(C(=O)NC4C(=O)NC(C(C)C)C(=O)N5CCCC5C(=O)N(C)CC(=O)N(C)C(C(C)C)C(=O)OC4C)c3nc-2c(C(=O)NC2C(=O)NC(C(C)C)C(=O)N3CCCC3C(=O)N(C)CC(=O)N(C)C(C(C)C)C(=O)OC2C)c(N)c1=O (configuration not stated) (I: TVP[Sar][NMeV] / II: TVP[Sar][NMeV]; ester I:1-I:C, II:1-II:C; linker I:N-II:N via Actinocin(9to1); configuration not given here)",
    "log fold change Tl+ flux": 0.0337
  },
  {
    "Compound": "C[n+]1ccccc1C=NO",
    "log fold change Tl+ flux": -0.0487
  },
  {
    "Compound": "CCN(CC)CCOc1ccc(C(=C(Cl)c2ccccc2)c2ccccc2)cc1",
    "log fold change Tl+ flux": 0.493
  },
  {
    "Compound": "O=C(Cn1nnc(N2CCCC2)n1)NN=Cc1ccc(Cl)cc1",
    "log fold change Tl+ flux": 0.0185
  },
  {
    "Compound": "N=c1c(C(N)=O)cc2c(=O)n3ccccc3nc2n1Cc1ccco1",
    "log fold change Tl+ flux": -0.00879
  },
  {
    "Compound": "O=C(c1ccccc1)c1c(Cl)cc(C(F)(F)F)cc1Cl",
    "log fold change Tl+ flux": 0.000317
  },
  {
    "Compound": "COC(=O)C1=C(C)NC(C)=C(C(=O)OC)C1c1ccccc1",
    "log fold change Tl+ flux": 0.0507
  }
]

Give the measured log fold change Tl+ flux of "O=C1N=C(O)CN1N=Cc1ccc(-c2ccc([N+](=O)[O-])cc2)o1" .
0.0532

Give the measured log fold change Tl+ flux of O=C(CC1SC(=NC2CC3C=CC2C3)NC1=O)Nc1ccccc1Cl (configuration not stated) .
0.0398

Give the measured log fold change Tl+ flux of "Cc1cnc(N)c(C)n1" .
-0.0212

Give the measured log fold change Tl+ flux of CC1c2cccc(O)c2C(O)=C2C(=O)C3(O)C(O)=C(C(N)=O)C(=O)C(N(C)C)C3C(O)C21 (configuration not stated) .
-0.108

----------
Protocol Text: antimalarial activity against Dd2 strain (AID 2302);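 also: 0% = DMSO untreated growth and 100% = chloroquine plus artemisinin killed control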
Reported Conditions: P. falciparum Dd2 in RBCs, LDH growth readout, 72 h; at 2 µM; stronger effect = higher value
Binary call on growth inhibition: met from 80% upward, not met beneath that.

Examples with answers:
[
  {
    "Sample Smiles": "CCN(CC)CCNC(=O)c1ccc(N=Cc2c(O)[nH]c3ccc(S(=O)(=O)Cc4c(Cl)cccc4Cl)cc23)cc1",
    "Cat": "not met"
  },
  {
    "Sample Smiles": "Cc1ccc(NCC(=O)Nc2ccc(F)c(Cl)c2)cc1S(=O)(=O)N1CCOCC1",
    "Cat": "met"
  },
  {
    "Sample Smiles": "CC[C@H](NC(=O)c1c(CC2CCN(CC(C)=O)CC2)c(-c2ccccc2)nc2ccccc12)c1ccccc1",
    "Cat": "met"
  }
]

Is it the case that "CC1(C)N=C(N)N=C(N)N1c1cccc(C(F)(F)F)c1" has growth inhibition reaching or exceeding 80%?
not met

Is it the case that "CCc1c(CCNC/C=C/C=C/CNCCc2ccc(OC)c(OC)c2CC)ccc(OC)c1OC" has growth inhibition reaching or exceeding 80%?
met

Is it the case that "Cc1c(F)cc(C(=O)NC2CC2)cc1-c1ccc2c(cnn2S(=O)(=O)c2ccc(F)c(F)c2)c1" has growth inhibition reaching or exceeding 80%?
not met
